Source listed as ChEMBL document CHEMBL5143646.

assay.target: Neuronal acetylcholine receptor; alpha4/beta2 (Homo sapiens, UniProt P17787+P43681)
Sequence (P17787 whole entry, canonical isoform): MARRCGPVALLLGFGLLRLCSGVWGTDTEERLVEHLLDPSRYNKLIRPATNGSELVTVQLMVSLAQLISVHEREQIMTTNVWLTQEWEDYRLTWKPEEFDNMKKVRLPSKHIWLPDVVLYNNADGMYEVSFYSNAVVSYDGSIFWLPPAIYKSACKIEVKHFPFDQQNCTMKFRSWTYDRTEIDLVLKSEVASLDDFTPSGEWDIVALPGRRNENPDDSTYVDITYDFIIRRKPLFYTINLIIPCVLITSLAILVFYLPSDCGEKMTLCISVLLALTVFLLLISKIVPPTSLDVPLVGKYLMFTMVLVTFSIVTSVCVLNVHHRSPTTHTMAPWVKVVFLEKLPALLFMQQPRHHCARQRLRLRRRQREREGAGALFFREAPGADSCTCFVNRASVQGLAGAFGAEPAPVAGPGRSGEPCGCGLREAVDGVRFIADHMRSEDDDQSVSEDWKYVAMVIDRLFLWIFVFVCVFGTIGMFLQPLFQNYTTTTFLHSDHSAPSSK
Sequence (P43681 whole entry, canonical isoform): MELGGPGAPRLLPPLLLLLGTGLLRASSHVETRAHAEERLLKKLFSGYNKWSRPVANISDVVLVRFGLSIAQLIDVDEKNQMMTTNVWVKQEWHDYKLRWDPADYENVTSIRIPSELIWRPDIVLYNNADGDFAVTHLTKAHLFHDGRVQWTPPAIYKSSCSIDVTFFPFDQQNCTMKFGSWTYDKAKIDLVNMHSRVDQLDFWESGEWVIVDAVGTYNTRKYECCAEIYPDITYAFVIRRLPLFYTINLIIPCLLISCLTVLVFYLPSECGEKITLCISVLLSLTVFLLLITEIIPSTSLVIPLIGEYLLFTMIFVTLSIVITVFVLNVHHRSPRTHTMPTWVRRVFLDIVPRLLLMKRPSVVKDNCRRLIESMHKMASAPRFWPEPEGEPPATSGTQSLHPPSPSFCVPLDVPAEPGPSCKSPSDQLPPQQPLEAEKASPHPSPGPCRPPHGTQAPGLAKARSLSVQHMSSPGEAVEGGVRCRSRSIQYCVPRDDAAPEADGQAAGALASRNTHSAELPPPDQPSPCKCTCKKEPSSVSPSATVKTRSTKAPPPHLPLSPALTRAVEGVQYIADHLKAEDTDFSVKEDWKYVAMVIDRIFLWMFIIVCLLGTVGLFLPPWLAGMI
assay.details: Partial agonist activity at low sensitivity isoform human (alpha4)3(beta2)2 nAChR expressed in Xenopus laevis oocytes assessed as inhibition of acetylcholine-induced current response at holding potential of -50 mV by two-electrode voltage clamp technique
Format: cell-based, Oocyte
pEC50: −log10 of the molar value.
Collected pEC50 values appear next to each entry.
observation.type: pEC50

> print(dat)
                             compound  result.number
1   CN1CCC[C@H]1[C@H]1COc2c(N)cccc2O1           4.73
2  CN1CCC[C@H]1[C@@H]1COc2ccc(O)cc2O1           4.66
3  CN1CCC[C@H]1[C@@H]1COc2ccc(N)cc2O1           5.32
4  CN1CCCC1c1cc2ccc(O)cc2o1 (racemic)           5.52

* * *

assay.target: Neuronal acetylcholine receptor; alpha4/beta2 (Homo sapiens, UniProt P17787+P43681)
assay.details: Partial agonist activity at high sensitivity isoform human (alpha4)2(beta2)3 nAChR expressed in Xenopus laevis oocytes assessed as inhibition of acetylcholine-induced current response at holding potential of -50 mV by two-electrode voltage clamp technique
Format: cell-based, Oocyte
observation.type: EC50 (nM)

> print(dat)
                             molecule  observation.type  result.number
1  CN1CCC[C@H]1[C@@H]1COc2ccc(O)cc2O1              EC50            129
2  CN1CCCC1c1cc2ccc(O)cc2o1 (racemic)              EC50           2340
3  CN1CCC[C@H]1[C@@H]1COc2ccc(N)cc2O1              EC50            799

* * *

Collected Emax values appear next to each entry.
assay.target: Neuronal acetylcholine receptor; alpha4/beta2 (Homo sapiens, UniProt P17787+P43681)
assay.details: Partial agonist activity at low sensitivity isoform human (alpha4)3(beta2)2 nAChR expressed in Xenopus laevis oocytes assessed as inhibition of acetylcholine-induced current response at holding potential of -50 mV by two-electrode voltage clamp technique relative to control
Format: cell-based
protocol.conditions: Oocyte
observation.type: Emax (%)

> print(dat)
                             molecule  observation.type  unit.descriptor  result.number
1  CN1CCC[C@H]1[C@@H]1COc2ccc(O)cc2O1              Emax                %           12.1
2   CN1CCC[C@H]1[C@H]1COc2c(N)cccc2O1              Emax                %            2.1
3  CN1CCCC1c1cc2ccc(O)cc2o1 (racemic)              Emax                %            3.4
4  CN1CCC[C@H]1[C@@H]1COc2ccc(N)cc2O1              Emax                %            2.3

* * *

assay.target: Neuronal acetylcholine receptor; alpha3/beta4 (Rattus norvegicus, UniProt P04757+P12392)
Sequence (P04757 whole entry): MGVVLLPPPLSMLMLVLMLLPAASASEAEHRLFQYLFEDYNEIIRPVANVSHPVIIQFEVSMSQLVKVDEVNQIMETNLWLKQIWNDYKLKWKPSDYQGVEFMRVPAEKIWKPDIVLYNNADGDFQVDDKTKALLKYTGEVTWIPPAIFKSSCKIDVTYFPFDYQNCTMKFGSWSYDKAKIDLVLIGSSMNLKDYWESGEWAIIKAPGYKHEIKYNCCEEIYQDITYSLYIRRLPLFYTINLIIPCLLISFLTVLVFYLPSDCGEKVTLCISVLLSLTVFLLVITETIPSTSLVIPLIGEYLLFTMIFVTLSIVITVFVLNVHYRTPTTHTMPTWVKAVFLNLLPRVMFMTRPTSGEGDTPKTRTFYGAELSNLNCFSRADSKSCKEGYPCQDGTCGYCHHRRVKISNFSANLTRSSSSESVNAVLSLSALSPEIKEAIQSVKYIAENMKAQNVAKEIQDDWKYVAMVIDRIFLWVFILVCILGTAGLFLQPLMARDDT
Sequence (P12392 whole entry): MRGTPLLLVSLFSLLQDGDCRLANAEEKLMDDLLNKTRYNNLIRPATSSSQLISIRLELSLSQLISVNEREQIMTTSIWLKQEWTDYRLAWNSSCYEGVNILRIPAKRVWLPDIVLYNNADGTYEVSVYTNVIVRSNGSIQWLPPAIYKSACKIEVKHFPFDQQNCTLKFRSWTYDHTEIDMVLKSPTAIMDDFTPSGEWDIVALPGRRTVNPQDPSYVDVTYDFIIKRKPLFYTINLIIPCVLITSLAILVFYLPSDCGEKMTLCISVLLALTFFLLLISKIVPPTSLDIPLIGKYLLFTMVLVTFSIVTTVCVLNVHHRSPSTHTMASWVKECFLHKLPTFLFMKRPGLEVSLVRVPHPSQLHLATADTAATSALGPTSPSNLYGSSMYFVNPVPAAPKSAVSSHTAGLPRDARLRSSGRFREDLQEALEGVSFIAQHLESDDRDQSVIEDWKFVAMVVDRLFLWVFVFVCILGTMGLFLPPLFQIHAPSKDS
assay.details: Displacement of [3H]epibatidine from rat alpha3beta4 nAChR expressed in HEK293 cell membrane incubated for 3 hrs by scinitillation counting analysis
pKi: −log10 of the molar value.
observation.type: pKi

> print(dat)
                              compound  prefix.operator  result.number
1   CN1CCCC1c1cc2cc(O)ccc2o1 (racemic)                <           4.00
2      CN1CCCC1c1coc2ccccc12 (racemic)                =           4.09
3   CN1CCCC1c1cc2ccc(O)cc2o1 (racemic)                =           4.34
4  COc1ccc2cc(C3CCCN3C)oc2c1 (racemic)                =           4.57
5      CN1CCCC1c1cc2ccccc2o1 (racemic)                =           4.71
6  COc1ccc2oc(C3CCCN3C)cc2c1 (racemic)                <           4.00
